- experimental.target: Human immunodeficiency virus type 1 reverse transcriptase (Human immunodeficiency virus 1)
- measurement.description: Inhibition of HIV-1 reverse transcriptase incubated for 1 hrs in presence of biotin-labeled dNTPs by ELISA assay
Consider the following partition of reported IC50 into named classes: low band: < 400 nM; middle band: ≥ 400 nM and < 800 nM; high band: ≥ 800 nM

Solved entries (count: 4):
[[record]]
molecular_string = "Cc1cc(C#N)cc(C)c1Oc1nc(Nc2ccc(-c3cn(Cc4ccc(S(N)(=O)=O)cc4)nn3)cc2)nc2ccsc12"
label_class = "low band"

[[record]]
molecular_string = "Cc1cc(C#N)cc(C)c1Oc1nc(Nc2ccc(-c3cn(CCN4C(=O)c5ccccc5C4=O)nn3)cc2)nc2ccsc12"
label_class = "high band"

[[record]]
molecular_string = "Cc1cc(C#N)cc(C)c1Oc1nc(Nc2ccc(-c3cn(Cc4ccc(Cl)cc4)nn3)cc2)nc2ccsc12"
label_class = "low band"

[[record]]
molecular_string = "Cc1cc(C#N)cc(C)c1Oc1nc(Nc2ccc(-c3cn(Cc4ccc(C(N)=O)cc4)nn3)cc2)nc2ccsc12"
label_class = "low band"


input: Using the reported IC50, which band applies to CCOC(=O)c1ccc(Cn2cc(-c3ccc(Nc4nc(Oc5c(C)cc(C#N)cc5C)c5sccc5n4)cc3)nn2)cc1 ?
output: middle band

input: Using the reported IC50, which band applies to Cc1cc(C#N)cc(C)c1Oc1nc(Nc2ccc(-c3cn(-c4ccc5c(c4)OCO5)nn3)cc2)nc2ccsc12 ?
output: high band

input: Using the reported IC50, which band applies to COC(=O)c1cccc(-n2cc(-c3ccc(Nc4nc(Oc5c(C)cc(C#N)cc5C)c5sccc5n4)cc3)nn2)c1 ?
output: middle band

input: Using the reported IC50, which band applies to Cc1cc(C#N)cc(C)c1Oc1nc(Nc2ccc(-c3cn(Cc4ccc(B(O)O)cc4)nn3)cc2)nc2ccsc12 ?
output: middle band

input: Using the reported IC50, which band applies to Cc1cc(C#N)cc(C)c1Oc1nc(Nc2ccc(-c3cn(Cc4ccc(C(F)(F)F)cc4F)nn3)cc2)nc2ccsc12 ?
output: high band

====

- System: Human immunodeficiency virus 1
- measurement.description: Antiviral activity against wild type HIV-1 IIIB infected in human MT4 cells assessed as protection against virus-induced cytopathic effect measured after 5 days by MTT assay
- Type: functional, organism-based
- study.conditions: Human immunodeficiency virus 1, IIIB, MT4, 120 h
Rule: measured EC50 below 100 nM gets Y; anything equal to or greater than 100 nM gets N.

[[record]]
molecular_string = "Cc1cc(C#N)cc(C)c1Oc1nc(Nc2ccc(-c3cn(Cc4ccc(C(F)(F)F)cc4F)nn3)cc2)nc2ccsc12"
label_class = "N"

[[record]]
molecular_string = "Cc1cc(C#N)cc(C)c1Oc1nc(Nc2ccc(-c3cn(Cc4ccc(S(N)(=O)=O)cc4)nn3)cc2)nc2ccsc12"
label_class = "Y"

[[record]]
molecular_string = "Cc1cc(C#N)cc(C)c1Oc1nc(Nc2ccc(-c3cn(Cc4ccc(C(F)(F)F)cc4)nn3)cc2)nc2ccsc12"
label_class = "N"


Proceed to the following item.
input: Is it true that EC50 reported for Cc1cc(C#N)cc(C)c1Oc1nc(Nc2ccc(-c3cn(Cc4ccc(Cl)cc4)nn3)cc2)nc2ccsc12 is less than 100 nM?
output: N

====

- experimental.target: Human immunodeficiency virus type 1 reverse transcriptase (Human immunodeficiency virus 1)
- measurement.description: Inhibition of HIV-1 reverse transcriptase at 0.267 uM incubated for 1 hrs in presence of biotin-labeled dNTPs by ELISA assay relative to control
Everything with inhibition lower than 20% is F; everything else, including exactly 20%, is T.

input: Is reported inhibition greater than or equal to 20% here: COC(=O)c1cccc(-n2cc(-c3ccc(Nc4nc(Oc5c(C)cc(C#N)cc5C)c5sccc5n4)cc3)nn2)c1
output: T

input: Is reported inhibition greater than or equal to 20% here: Cc1cc(C)c(-n2cc(-c3ccc(Nc4nc(Oc5c(C)cc(C#N)cc5C)c5sccc5n4)cc3)nn2)c(C)c1
output: F

input: Is reported inhibition greater than or equal to 20% here: Cc1cc(C#N)cc(C)c1Oc1nc(Nc2ccc(-c3cn(Cc4ccc(Cl)cc4)nn3)cc2)nc2ccsc12
output: T

====

- measurement.description: Aqueous solubility of the compound at pH 7.0 at 0.1 to 10 mg
- Assay type: physicochemical
- study.conditions: aqueous medium, dose 0.1-10 mg
result.type: solubility (µg/mL)
The reply should contain only the number, in µg/mL.

input: # lookup: solubility of Cc1cc(C#N)cc(C)c1Oc1nc(Nc2ccc(-c3cn(S(=O)(=O)n4ccnc4)nn3)cc2)nc2ccsc12
output: 64.7

====

- experimental.target: Human immunodeficiency virus type 1 reverse transcriptase (Human immunodeficiency virus 1)
- measurement.description: Inhibition of HIV-1 reverse transcriptase at 0.267 uM incubated for 1 hrs in presence of biotin-labeled dNTPs by ELISA assay relative to control
result.type: inhibition
Dear colleague, please send the value followed by its unit.

[[record]]
molecular_string = "COc1ccccc1Cn1cc(-c2ccc(Nc3nc(Oc4c(C)cc(C#N)cc4C)c4sccc4n3)cc2)nn1"
recorded_measurement = "3.7%"

[[record]]
molecular_string = "COC(=O)CCCn1cc(-c2ccc(Nc3nc(Oc4c(C)cc(C#N)cc4C)c4sccc4n3)cc2)nn1"
recorded_measurement = "35.3%"

[[record]]
molecular_string = "Cc1cc(C#N)cc(C)c1Oc1nc(Nc2ccc(-c3cn(CC(=O)Nc4ccc(C(F)(F)F)cc4)nn3)cc2)nc2ccsc12"
recorded_measurement = "43.8%"

[[record]]
molecular_string = "Cc1cc(C#N)cc(C)c1Oc1nc(Nc2ccc(-c3cn(Cc4ccc(C#N)cc4)nn3)cc2)nc2ccsc12"
recorded_measurement = "36.9%"


input: # lookup: inhibition of Cc1cc(C#N)cc(C)c1Oc1nc(Nc2ccc(-c3cn(CC(=O)NC4CC4)nn3)cc2)nc2ccsc12
output: 29.7%

====

Form field: half-life (one value per entry).
- measurement.description: Half life in Wistar rat at 2 mg/kg, iv measured upto 8 hrs by LC-MS/MS analysis
- Type: ADME, organism-based
- study.conditions: in vivo
The reply should contain only the number, in h.

// known answers, use as guide
[[record]]
molecular_string = "Cc1cc(C#N)cc(C)c1Oc1nc(NC2CCN(Cc3ccc(S(N)(=O)=O)cc3)CC2)nc2ncsc12"
recorded_measurement = 2

[[record]]
molecular_string = "Cc1cc(C#N)cc(C)c1Oc1nc(NC2CCN(Cc3ccc(S(N)(=O)=O)cc3)CC2)nc2ccsc12"
recorded_measurement = 1.6


input: # lookup: half-life of Cc1cc(C#N)cc(C)c1Oc1nc(NC2CCN(Cc3ccc(S(N)(=O)=O)cc3)CC2)nc2scnc12
output: 0.9

====

Form field: EC50 (one value per entry).
- Test system: Human immunodeficiency virus 1
- measurement.description: Antiviral activity against HIV-1 harboring RT RES056 mutant infected in human MT4 cells assessed as protection against virus-induced cytopathic effect measured after 5 days by MTT assay
- Format: functional, organism-based
- study.conditions: Human immunodeficiency virus 1, MT4, 120 h

[[record]]
molecular_string = "Cc1cc(C#N)cc(C)c1Oc1nc(Nc2ccc(C#N)cc2)nc(N)c1Br"
experimental_target = "Human immunodeficiency virus 1"
recorded_measurement = "0.07 µM"


input: # lookup: EC50 of Cc1cc(C#N)cc(C)c1Oc1nc(Nc2ccc(-c3cn(Cc4ccc(Cl)cc4)nn3)cc2)nc2ccsc12
output: > 222 µM

input: # lookup: EC50 of Cc1cc(C#N)cc(C)c1Oc1nc(Nc2ccc(-c3cn(Cc4ccc(C(N)=O)cc4)nn3)cc2)nc2ccsc12
output: > 218 µM

input: # lookup: EC50 of COC(=O)c1cccc(-n2cc(-c3ccc(Nc4nc(Oc5c(C)cc(C#N)cc5C)c5sccc5n4)cc3)nn2)c1
output: ≥ 154 µM

input: # lookup: EC50 of Cc1cc(C#N)cc(C)c1Oc1nc(Nc2ccc(-c3cn(Cc4ccc(S(N)(=O)=O)cc4)nn3)cc2)nc2ccsc12
output: > 205 µM

input: # lookup: EC50 of Cc1cc(C#N)cc(C)c1Oc1nc(Nc2ccc(-c3cn(CC(=O)Nc4ccc(C(F)(F)F)cc4)nn3)cc2)nc2ccsc12
output: 23.4 µM

====

- System: Human immunodeficiency virus 1
- measurement.description: Antiviral activity against HIV-1 harboring RT L100I mutant infected in human MT4 cells assessed as protection against virus-induced cytopathic effect measured after 5 days by MTT assay
- Format: functional, organism-based
- study.conditions: Human immunodeficiency virus 1, MT4, 120 h
result.type: EC50 (nM)
The reply should contain only the number, in nM.

// known answers, use as guide
[[record]]
molecular_string = "Cc1cc(C#N)cc(C)c1Oc1nc(Nc2ccc(-c3cn(Cc4ccc(S(N)(=O)=O)cc4)nn3)cc2)nc2ccsc12"
experimental_target = "Human immunodeficiency virus 1"
result_type = "EC50"
recorded_measurement = 990

[[record]]
molecular_string = "O=C1Nc2ccc(Cl)cc2[C@@](C#CC2CC2)(C(F)(F)F)O1"
experimental_target = "Human immunodeficiency virus 1"
result_type = "EC50"
recorded_measurement = 80

[[record]]
molecular_string = "Cc1cc(C#N)cc(C)c1Oc1nc(Nc2ccc(-c3cn(CCN4C(=O)c5ccccc5C4=O)nn3)cc2)nc2ccsc12"
experimental_target = "Human immunodeficiency virus 1"
result_type = "EC50"
recorded_measurement = 3200

[[record]]
molecular_string = "Cc1cc(C#N)cc(C)c1Oc1nc(Nc2ccc(-c3cn(-c4ccc5c(c4)OCO5)nn3)cc2)nc2ccsc12"
experimental_target = "Human immunodeficiency virus 1"
result_type = "EC50"
recorded_measurement = 10900

[[record]]
molecular_string = "Cc1cc(C#N)cc(C)c1Oc1nc(Nc2ccc(-c3cn(Cc4ccc(C(F)(F)F)cc4)nn3)cc2)nc2ccsc12"
experimental_target = "Human immunodeficiency virus 1"
result_type = "EC50"
recorded_measurement = 840


input: For Human immunodeficiency virus 1, provide EC50 of COC(=O)c1cccc(-n2cc(-c3ccc(Nc4nc(Oc5c(C)cc(C#N)cc5C)c5sccc5n4)cc3)nn2)c1 please.
output: 7400

input: For Human immunodeficiency virus 1, provide EC50 of Cc1ccnc2c1NC(=O)c1cccnc1N2C1CC1 please.
output: 1450

input: For Human immunodeficiency virus 1, provide EC50 of Cc1cc(C#N)cc(C)c1Oc1nc(Nc2ccc(-c3cn(Cc4ccc(C(N)=O)cc4)nn3)cc2)nc2ccsc12 please.
output: 1470
